Parameter: kon. Scope: all listed entries.
Biological target: T1, human gpNMB (Human Osteoactivin, His-tag, AcroBioSystems) (human, UniProt Q14956-2 23-486, limits assumed)
T1 sequence (looked up): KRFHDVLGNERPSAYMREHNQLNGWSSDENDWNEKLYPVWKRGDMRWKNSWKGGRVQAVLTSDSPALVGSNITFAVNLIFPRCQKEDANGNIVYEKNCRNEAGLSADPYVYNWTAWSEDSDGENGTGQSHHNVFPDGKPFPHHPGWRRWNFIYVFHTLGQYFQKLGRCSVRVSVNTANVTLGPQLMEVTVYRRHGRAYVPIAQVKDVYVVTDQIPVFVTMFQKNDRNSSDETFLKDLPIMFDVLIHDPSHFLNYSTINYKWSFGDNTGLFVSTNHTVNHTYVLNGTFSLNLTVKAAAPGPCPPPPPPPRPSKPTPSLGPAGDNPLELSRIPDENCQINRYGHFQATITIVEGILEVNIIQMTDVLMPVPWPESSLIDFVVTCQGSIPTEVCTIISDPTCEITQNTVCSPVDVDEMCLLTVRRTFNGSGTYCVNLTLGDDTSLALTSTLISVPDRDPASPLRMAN
Test: SPR Biacore 8K, antibody captured on protein A, gpNMB as analyte
Numeric answer only, unit M⁻¹ s⁻¹ assumed.

binder	u	kon
hGPN18-5_H1L3 (antibody, V domains shown, humanized; also called hGPN18-5_VH1+VL3; GPN18-5-VH1+VL3) VH: QVQLVQSGAEVKKPGASVKVSCKASGYTFTTYWMNWVRQAPGQGLEWIGAINPSNDYTEYNQKFKDRVTMTADTSTSTVYMELSSLRSEDTAVYYCGRSYSPDYWGQGTTVTVSS VL: DIQMTQSPSSLSASVGDRVTITCKASQNVDNHVAWHQQKPGKAPKALIYSASYRYSGVPDRFTGSGSGTDFTLTISSLQPEDFADYFCQQYKSYPFTFGGGTKLEIK	M⁻¹ s⁻¹	7150

Now for the binder whose kon we want.
Exam item: Hello, please tell me recorded kon for this one: hGPN18-5_H2L1 (antibody, V domains shown, humanized; also called hGPN18-5_VH2+VL1) VH: QVQLVQSGAEVKKPGASVKVSCKASGYTFTTYWMNWVRQAPGQGLEWIGAINPSNDYTEYNQKFKDRATMTADTSTSTVYMELSSLRSEDTAVYYCGRSYSPDYWGQGTTVTVSS VL: DIQMTQSPSSLSASVGDRVTITCKASQNVDNHVAWFQQKPGKAPKALIYSASYRYSGVPSRFSGSGSGTDFTLTISSLQPEDFATYFCQQYKSYPFTFGGGTKLEIK
Marked response: 6870
